Target: T1, recombinant HIS-tagged human S100A10 (wild type) (human, UniProt P60903 1-97)
T1 construct: human S100A10, cDNA in pET28a(+); also called HIS-S100A10; S100A10 wt; source: E. coli BL21(DE3)pLysS, purified (Ni-NTA); not shown: poly-histidine (HIS), N-terminal, kept
T1 sequence (P60903 whole entry): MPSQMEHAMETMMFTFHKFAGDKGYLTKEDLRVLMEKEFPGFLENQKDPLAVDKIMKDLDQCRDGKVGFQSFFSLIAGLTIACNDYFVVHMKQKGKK
Assay: SPR; Biacore 3000; GST-CCR10 CT amine-coupled on a CM5 chip; six concentrations of HIS-tagged S100A10 derivative injected; HBS-P buffer (10 mM Hepes pH 7.4, 150 mM NaCl, 0.005% Tween-20), 25 °C; binding to GST alone subtracted; single binding site model, KD by the Scatchard equation
Settings: both partners purified
Endpoint: Kd

Qu. Quick one: Kd of GLRFRQDLRRLLRGGSCPSGPQPRRGCPRRPRLSSCSAPTETHSLSWDN (domain or fragment, UniProt P46092 314-362, looked up, C-terminal cytosolic tail of human CCR10, amino acid residues 314-362 (methods); the results print 314-369; Cloned in pGex-4T-1; Results print 314-369, methods 314-362; also called CCR10 CT_(314–369); pGex-CCR10CT_(314–362)) [GST-CCR10 CT (C-terminal cytoplasmic tail of human CCR10 fused to GST)] ?
Ans. ~1000 nM
